- Test system: COLO 205 colon
- assay_info: NCI tumour cell line growth inhibition, 48 h
Measured TGI of individual entries

TGI recorded for this compound, O=C(c1nc2ccc(Cl)cc2[nH]c1=O)C(O)c1ccccc1 (centres undefined) , is > 100 µM

TGI recorded for this compound, CCO/C=N/C1=C(C#N)C(c2ccc(OC)cc2)c2sc3c(F)cccc3c2O1 (centres undefined) , is 15 µM

TGI recorded for this compound, CN(C)C1C(=O)C(C(=O)NCN2CCCC2)=C(O)C2(O)C(=O)C3=C(O)c4c(O)cccc4C(C)(O)C3CC12 (centres undefined) , is > 100 µM

TGI recorded for this compound, "COC1=CC(=Nc2c(Cl)cc(Cl)cc2OC(=O)c2ccc([N+](=O)[O-])cc2)C=C(OC)C1=O" , is 33.6 µM

TGI recorded for this compound, "CC(C)OC(=O)[C@@H]1OC(C)(C)O[C@H]1C(=O)OC(C)C" , is > 100 µM

TGI recorded for this compound, "CNCCCCN(C)/[N+]([O-])=N\O" , is > 100 µM

TGI recorded for this compound, C=CCSc1ncnc2c1ncn2C1OC(CO)C(O)C1O (centres undefined) , is > 100 µM

TGI recorded for this compound, "O=C(CCc1n[nH]c(=S)o1)Nc1ccc(Cl)cc1Cl" , is > 100 µM

TGI recorded for this compound, "C=C1C(=O)O[C@H]2[C@H]1CC/C(COC(=O)/C=C/C(=O)NCc1ccc(Cn3c(=O)sn(-c4ccccc4)c3=O)cc1)=C\CC[C@@]1(C)O[C@@H]21" , is 3.47 µM

###

- System: A498 renal
- assay_info: NCI tumour cell line growth inhibition, 48 h
readout_label: TGI

A selection of reference data follows.
* O=C1Nc2ccccc2/C1=C\c1c(Cl)nc2sccn12 | 22.4 µM
* O=C1OC(O)c2cc3c(cc21)OCO3 (stereo not given) | > 100 µM
* ClC(Cl)(Cl)C(N1CCN(c2ccccc2)CC1)N1CCN(c2ccccc2)CC1 | > 100 µM
* O/N=C1/C(=C/c2ccc(Cl)c(Cl)c2)CCCC1C(NO)c1ccc(Cl)c(Cl)c1 (stereo not given) | 27.4 µM

Then there is this compound:
Param item: "CC(C)(C)c1ccc(C(C)(C)C)c(N2C(=O)[C@@H]3[C@@H]4C=C[C@@H](C4)[C@]3(C)C2=O)c1" ; param system: A498 renal; output TGI: 69.8 µM

###

- System: OVCAR-4 ovarian
- assay_info: NCI tumour cell line growth inhibition, 48 h
Measured TGI of individual entries

• O=C(c1ccccc1)N1CCN2CCN=C(c3ccccc3)C21c1ccccc1 (stereo not given) = > 100 µM
• Nc1nc(N)c(N=Nc2ccccc2)c(-c2ccccc2)n1 = 20.7 µM
• COC(=O)[C@@H](C)C[C@H](Cc1ccc2ccccc2c1)NC(=O)c1csc([C@@H](C[C@H](C(C)C)N(C)C(=O)[C@@H](NC(=O)[C@H]2CCCCN2C)C(C)C)OC(C)=O)n1 = > 25 µM
• COc1c(C)c(O)c2c(=O)cc(-c3ccccc3)oc2c1C = > 100 µM

Param item: "O=[N+]([O-])c1ccc(C2=Nn3c(nnc3-c3ccccc3)SC2)o1" ; param system: OVCAR-4 ovarian; output TGI: 41.5 µM

###

Measured TGI of individual entries
- Tested on: SK-MEL-5 melanoma
- assay_info: NCI tumour cell line growth inhibition, 48 h
Record the value in µM, omitting the unit from your answer.

A selection of reference data follows.
- COc1cc2c(cc1OCCCCCn1c(-c3ccc(OCc4ccccc4)cc3)nc3cc(N4CCOCC4)ccc31)N=C[C@@H]1CCCN1C2=O: 3.13
- CC(C)(Cl)C(Br)CCC(C)(Br)C(Br)CBr (centres undefined): 28
- CC[C@]12C=CCN3CC[C@@]4(c5cc(N=O)c(OC)cc5N(C)[C@H]4[C@@](O)(C(=O)NC(Cc4c[nH]c5ccccc45)C(=O)OC)[C@@H]1O)[C@@H]32 (some centres undefined): 28

TGI recorded for this compound, "CC(=O)Oc1c(-c2ccccc2)oc2ccccc12" , is 2.8

TGI recorded for this compound, "Cn1ncc(NC(=O)c2nc(-c3c(F)cccc3F)sc2N)c1N1CC[C@@H](N)[C@H](F)CC1" , is 17.8
